Values from ChEMBL document CHEMBL4680217

- target.system: von Hippel-Lindau disease tumor suppressor/Apoptosis regulator Bcl-2 (Homo sapiens) (UniProt P10415+P40337)
- Sequence (P10415 whole entry, looked up): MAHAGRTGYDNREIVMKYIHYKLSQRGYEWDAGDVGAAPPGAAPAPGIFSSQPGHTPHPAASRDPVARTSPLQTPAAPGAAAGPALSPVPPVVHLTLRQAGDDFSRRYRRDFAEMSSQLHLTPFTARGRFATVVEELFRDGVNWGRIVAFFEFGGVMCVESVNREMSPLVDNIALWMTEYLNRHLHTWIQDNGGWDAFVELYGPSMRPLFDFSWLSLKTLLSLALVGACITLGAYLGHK
- Sequence (P40337 whole entry, looked up): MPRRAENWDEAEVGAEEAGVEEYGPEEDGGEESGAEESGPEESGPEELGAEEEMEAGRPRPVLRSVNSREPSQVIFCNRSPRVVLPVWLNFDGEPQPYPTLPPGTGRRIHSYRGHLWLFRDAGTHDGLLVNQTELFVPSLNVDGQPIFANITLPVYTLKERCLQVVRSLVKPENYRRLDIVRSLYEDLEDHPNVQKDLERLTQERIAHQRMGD
- method: Protac activity at VHL/BCL2 in human MOLT-4 cells assessed as induction of BCL2 degradation at 100 nM measured after 16 hrs by immunoblotting analysis
- Type: cell-based
Calls of active or inactive are those of the source. No cut-off for these calls is given here.
observed.property: Activity

INSERT INTO results (mol, obs_value) VALUES
  ('Cc1ncsc1-c1ccc([C@H](C)NC(=O)[C@@H]2C[C@@H](O)CN2C(=O)[C@@H](NC(=O)COCCOCC(=O)N2CCN(CC[C@H](CSc3ccccc3)Nc3ccc(S(=O)(=O)NC(=O)c4ccc(N5CCN(CC6=C(c7ccc(Cl)cc7)CCC(C)(C)C6)CC5)cc4)cc3S(=O)(=O)C(F)(F)F)CC2)C(C)(C)C)cc1', 'inactive'),
  ('Cc1ncsc1-c1ccc([C@H](C)NC(=O)[C@@H]2C[C@@H](O)CN2C(=O)[C@@H](NC(=O)COCCOCCOCCOCCN(C)CC[C@H](CSc2ccccc2)Nc2ccc(S(=O)(=O)NC(=O)c3ccc(N4CCN(CC5=C(c6ccc(Cl)cc6)CCC(C)(C)C5)CC4)cc3)cc2S(=O)(=O)C(F)(F)F)C(C)(C)C)cc1', 'inactive');

###

The following compounds are shown together with reported Activity values.
- target.system: Protein cereblon/Bcl-2-like protein 1 (Homo sapiens, UniProt Q07817+Q96SW2)
- Sequence (Q07817 whole entry, looked up): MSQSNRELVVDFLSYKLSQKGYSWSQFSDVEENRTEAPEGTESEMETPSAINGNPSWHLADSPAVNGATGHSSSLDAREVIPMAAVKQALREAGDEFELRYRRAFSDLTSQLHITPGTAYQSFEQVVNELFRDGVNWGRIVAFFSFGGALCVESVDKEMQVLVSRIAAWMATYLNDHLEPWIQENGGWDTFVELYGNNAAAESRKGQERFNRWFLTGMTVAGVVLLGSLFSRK
- Sequence (Q96SW2 whole entry, looked up): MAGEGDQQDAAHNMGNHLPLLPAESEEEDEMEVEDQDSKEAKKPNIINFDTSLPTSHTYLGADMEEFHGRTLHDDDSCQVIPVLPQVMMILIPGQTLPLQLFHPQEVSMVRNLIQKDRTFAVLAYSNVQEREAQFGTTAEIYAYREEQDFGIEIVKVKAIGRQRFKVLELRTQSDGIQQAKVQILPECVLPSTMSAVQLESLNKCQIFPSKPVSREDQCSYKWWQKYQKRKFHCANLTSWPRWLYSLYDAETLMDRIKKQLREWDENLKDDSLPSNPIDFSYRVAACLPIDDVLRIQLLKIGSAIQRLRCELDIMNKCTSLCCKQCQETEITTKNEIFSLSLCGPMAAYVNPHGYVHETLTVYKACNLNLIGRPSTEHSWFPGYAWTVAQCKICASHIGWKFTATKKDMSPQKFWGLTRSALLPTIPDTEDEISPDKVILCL
- method: Protac activity at CRBN/BCL-XL in human MOLT-4 cells assessed as induction of BCL-XL degradation by measuring remaining BCL-XL level at 50 nM measured after 16 hrs by immunoblotting analysis relative to control
- Format: cell-based
observed.property: Activity (%)

INSERT INTO results (mol, obs_value) VALUES
  ('CN(CCCCCCCCNc1cccc2c1C(=O)N([C@@H]1CCC(=O)NC1=O)C2=O)CC[C@H](CSc1ccccc1)Nc1ccc(S(=O)(=O)NC(=O)c2ccc(N3CCN(CC4=C(c5ccc(Cl)cc5)CCC(C)(C)C4)CC3)cc2)cc1S(=O)(=O)C(F)(F)F', 94),
  ('CC1(C)CCC(c2ccc(Cl)cc2)=C(CN2CCN(c3ccc(C(=O)NS(=O)(=O)c4ccc(N[C@H](CCN5CCN(C(=O)CCCCCNc6cccc7c6C(=O)N([C@@H]6CCC(=O)NC6=O)C7=O)CC5)CSc5ccccc5)c(S(=O)(=O)C(F)(F)F)c4)cc3)CC2)C1', 63);

###

- target.system: Protein cereblon/Bcl-2-like protein 1 (Homo sapiens, UniProt Q07817+Q96SW2)
- method: Protac activity at CRBN/BCL-XL in human MOLT-4 cells assessed as induction of BCL-XL degradation by measuring remaining BCL-XL level at 50 nM measured after 16 hrs by immunoblotting analysis relative to control
- Format: cell-based
The following compounds are shown together with reported Activity values.
observed.property: Activity (%)

INSERT INTO measurements (mol, unit_descriptor, obs_value) VALUES
  ('CN(CC[C@H](CSc1ccccc1)Nc1ccc(S(=O)(=O)NC(=O)c2ccc(N3CCN(CC4=C(c5ccc(Cl)cc5)CCC(C)(C)C4)CC3)cc2)cc1S(=O)(=O)C(F)(F)F)C(=O)CCCn1cc(COCCOCCNc2cccc3c2C(=O)N([C@@H]2CCC(=O)NC2=O)C3=O)nn1', '%', 66),
  ('CC1(C)CCC(c2ccc(Cl)cc2)=C(CN2CCN(c3ccc(C(=O)NS(=O)(=O)c4ccc(N[C@H](CCN5CCN(CCCCNc6cccc7c6C(=O)N([C@@H]6CCC(=O)NC6=O)C7=O)CC5)CSc5ccccc5)c(S(=O)(=O)C(F)(F)F)c4)cc3)CC2)C1', '%', 20);
